Test system: A549 (lung cancer cells)
test.method.notes: Inhibitory activity against cancer cells (sulforhodamine B staining)
Format: cell-based
run.conditions: 3 days, SRB staining
pIC50: −log10 of the molar value.
measured.attribute: pIC50

[A] N#Cc1cn([C@@H]2S[C@H](COC(=O)c3ccccc3)[C@@H](O)[C@H]2O)c2ncnc(N)c12
[B] C#Cc1cn([C@@H]2S[C@H](COC(=O)c3ccc(Cl)cc3)[C@@H](O)[C@H]2O)c2ncnc(N)c12
Req: Param pair: A , B . Output: the one whose pIC50 is numerically greater. Answer by stating the label of the chosen item.
Resp: B

---

test.system: CSNK1D (Homo sapiens)
Construct: made in house
Sequence (P48730 whole entry): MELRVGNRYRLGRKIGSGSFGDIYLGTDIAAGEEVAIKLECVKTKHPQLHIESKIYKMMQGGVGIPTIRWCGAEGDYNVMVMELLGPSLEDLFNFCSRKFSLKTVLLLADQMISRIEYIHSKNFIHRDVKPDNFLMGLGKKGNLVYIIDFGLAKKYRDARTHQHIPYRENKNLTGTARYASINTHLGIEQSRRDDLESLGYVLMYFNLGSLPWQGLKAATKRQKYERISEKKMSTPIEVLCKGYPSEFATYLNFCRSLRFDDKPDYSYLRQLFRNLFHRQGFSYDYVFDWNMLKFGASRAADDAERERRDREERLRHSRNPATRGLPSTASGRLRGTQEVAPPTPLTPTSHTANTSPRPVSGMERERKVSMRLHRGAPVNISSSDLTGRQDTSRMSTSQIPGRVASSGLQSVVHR
test.method.notes: Kinase inhibition test (DNA-tagged kinase, affinity resin, qPCR readout)
Format: binding
Design: key: (−) indicates no effect; (+) indicates weak inhibitory activity; (++) indicates a moderate level of inhibitory activity; (+++) indicates strong inhibitory activity
run.conditions: 1 μM of compound
measured.attribute: CSNK1D inhibitory activity

| compound | test.system | result |
| --- | --- | --- |
| Nc1ncnc2c1c(-c1ccccc1)cn2[C@@H]1SC[C@@H](O)[C@H]1O [Compound 13d] | CSNK1D (Homo sapiens) | ++ |
| CCC#Cc1cn([C@@H]2S[C@H](CO)[C@@H](O)[C@H]2O)c2ncnc(N)c12 | CSNK1D (Homo sapiens) | + |
| C#Cc1cn([C@@H]2SC[C@@H](O)[C@H]2O)c2ncnc(N)c12 [Compound 13a] | CSNK1D (Homo sapiens) | ++ |
| Nc1ncnc2c1c(-c1ccco1)cn2[C@@H]1S[C@H](COC(=O)c2ccccc2)[C@@H](O)[C@H]1O | CSNK1D (Homo sapiens) | ++ |
| C#Cc1cn([C@@H]2SC(=C)[C@@H](O)[C@H]2O)c2ncnc(N)c12 [Compound 12b] | CSNK1D (Homo sapiens) | +++ |
| N#Cc1cn([C@@H]2S[C@H](CN)[C@@H](O)[C@H]2O)c2ncnc(N)c12 [Compound 10b] | CSNK1D (Homo sapiens) | ++ |

Lab book: CSNK1D inhibitory activity of NC[C@H]1S[C@@H](n2cc(C(N)=O)c3c(N)ncnc32)[C@H](O)[C@@H]1O [Compound 10c] noted as ++

CSNK1D inhibitory activity reading for Nc1ncnc2c1c(-c1cccs1)cn2[C@@H]1SC[C@@H](O)[C@H]1O [Compound 13c] : +++

---

test.system: DYRK1A (Homo sapiens)
Construct: made in house
test.method.notes: Kinase inhibition test (DNA-tagged kinase, affinity resin, qPCR readout)
Assay type: binding
Design: key: (−) indicates no effect; (+) indicates weak inhibitory activity; (++) indicates a moderate level of inhibitory activity; (+++) indicates strong inhibitory activity
run.conditions: 1 μM of compound
Excerpt: […]
measured.attribute: DYRK1A inhibitory activity

| compound | test.system | DYRK1A inhibitory activity |
| --- | --- | --- |
| N#Cc1cn([C@@H]2S[C@H](CNC(N)=O)[C@@H](O)[C@H]2O)c2ncnc(N)c12 | DYRK1A (Homo sapiens) | ++ |
| Nc1ncnc2c1c(-c1ccccc1)cn2[C@@H]1SC[C@@H](O)[C@H]1O [Compound 13d] | DYRK1A (Homo sapiens) | ++ |
| Nc1ncnc2c1c(-c1ccco1)cn2[C@@H]1SC[C@@H](O)[C@H]1O [Compound 13b] | DYRK1A (Homo sapiens) | +++ |
| NC(=O)c1cn([C@@H]2S[C@H](CNC(=O)c3ccccc3)[C@@H](O)[C@H]2O)c2ncnc(N)c12 | DYRK1A (Homo sapiens) | ++ |
| C#Cc1cn([C@@H]2SC(=C)[C@@H](O)[C@H]2O)c2ncnc(N)c12 [Compound 12b] | DYRK1A (Homo sapiens) | +++ |
| Nc1ncnc2c1c(-c1ccco1)cn2[C@@H]1S[C@H](COC(=O)c2ccccc2)[C@@H](O)[C@H]1O | DYRK1A (Homo sapiens) | +++ |
| CCC#Cc1cn([C@@H]2S[C@H](CO)[C@@H](O)[C@H]2O)c2ncnc(N)c12 | DYRK1A (Homo sapiens) | + |
| CC(C)(C)C#Cc1cn([C@@H]2S[C@H](CO)[C@@H](O)[C@H]2O)c2ncnc(N)c12 | DYRK1A (Homo sapiens) | − |

Here's the next entry for you.
The compound Nc1ncnc2c1c(-c1cccs1)cn2[C@@H]1S[C@H](CO)[C@@H](O)[C@H]1O showed DYRK1A inhibitory activity equal to ++
